Origin of the recorded values: PubChem BioAssay (EPA / NIEHS)

- TEST_DETAILS: APR_HepG2_CellLoss_1hr: Apredica 1-hour HepG2 Assay for Cell Loss (AID 2282668);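 also: curves fitted both ways against DMSO so gain or loss of cells counts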
- CONDITION: high-content imaging
Calls of active or inactive are those of the source. The calls were made as follows: active = hit-call score of the fitted dose curve at least 0.9, where 1 is the maximum; inactive = score below 0.9.
# valid calls are true (1) = active, false (0) = inactive; nothing else

Example entries begin here.
CCOC(=O)NCCOc1ccc(Oc2ccccc2)cc1 = false (0)
CC(C)(c1ccc(O)cc1)c1ccc(O)cc1 = false (0)
S=C([S-])NCCNC(=S)[S-].[Mn+2] = false (0)
CCCOC(=O)c1ccc(C(=O)OCCC)nc1 = false (0)
CCCCOC(=O)[C@@H](C)Oc1ccc(Oc2ccc(C(F)(F)F)cn2)cc1 = false (0)

**Q:** // return assay outcome for CCCCCCC(C)OC(=O)COc1nc(F)c(Cl)c(N)c1Cl (stereo unspecified)
**A:** true (1)

**Q:** Record request — test call for CCCCC(CC)CN1C(=O)C2C3C=CC(C3)C2C1=O (stereo unspecified)
**A:** false (0)

**Q:** // param item: COC(=O)c1ccc(CNS(C)(=O)=O)cc1S(=O)(=O)NC(=O)Nc1nc(OC)cc(OC)n1 ; yields the recorded call
**A:** false (0)
